Entry source: patent US20170368031A1

EXPERIMENT_SUMMARY: Human clinical biocomparison study: oral absorption of Formulation 1 with and without pH-raising medication
TEST_CONTEXT: in vivo, 100 mg, Treatment 1: Formulation 1 dosed by itself, healthy subjects

| COMPOUND | AUC(0-inf) |
| --- | --- |
| COC(=O)N[C@H](C(=O)N1CCC[C@H]1c1nc(-c2ccc3c(c2)O[C@@H](c2ccccc2)n2c-3cc3cc(-c4c[nH]c([C@@H]5CCCN5C(=O)[C@@H](NC(=O)OC)C(C)C)n4)ccc32)c[nH]1)C(C)C [Compound I] | 3.77 µM·h |

* * *

EXPERIMENT_SUMMARY: Human clinical biocomparison study: oral absorption of Formulation 1 with and without pH-raising medication
TEST_CONTEXT: in vivo, 100 mg, Treatment 1: Formulation 1 dosed by itself, healthy subjects
REPORTED_PROPERTY: Cmax (nM)

| ITEM_SMILES | REPORTED_PROPERTY | UNIT_TAG | EXPERIMENTAL_VALUE |
| --- | --- | --- | --- |
| COC(=O)N[C@H](C(=O)N1CCC[C@H]1c1nc(-c2ccc3c(c2)O[C@@H](c2ccccc2)n2c-3cc3cc(-c4c[nH]c([C@@H]5CCCN5C(=O)[C@@H](NC(=O)OC)C(C)C)n4)ccc32)c[nH]1)C(C)C | Cmax | nM | 216 |
